Hello, the source for this data is patent US20260008746A1, in case you need it.

tested on: 293T cells; experiment: Cell survival rate determination (CCK-8); assay type: cell-based; conditions: LNP formulation containing 1.5 μg Fluc-mRNA, 24 hours, CCK-8, absorbance at 450 nm
Parameter: Cell survival rate (%). Scope: all listed entries.
The response must be a number in % with no trailing unit.

For orientation, consider the following solved cases.
Req: For the compound CCCCCCCCCCOC(=O)CCCN(CCCCCC(=O)OCCC(CCCCCC)CCCCCC)C1CCCC1O (centres unmarked) , give its measured Cell survival rate (%) value.
Resp: 73.43

Req: For the compound CCCCCCCCCCOC(=O)CCCN(CCO)CCCCC(=O)OCCC(CCCCCC)CCCCCC , give its measured Cell survival rate (%) value.
Resp: 73.55

Req: For the compound CCCCCCCCC(CCCCCCCC)COC(=O)CCCCCN(CCO)CCCCCC(=O)OCCSCCCC , give its measured Cell survival rate (%) value.
Resp: 43.05

Next:
Req: For the compound CCCCCCCCCCOC(=O)CCCN(CCCCCC(=O)OCCC(CCCCCC)CCCCCC)CCOCCO , give its measured Cell survival rate (%) value.
Resp: 76.68

Req: For the compound CCCCCCCCCCOC(=O)CCCN(CCCCCC(=O)OCC(CCCCCCCC)CCCCCCCC)CCOCCOCCO , give its measured Cell survival rate (%) value.
Resp: 79.15

Req: For the compound CCCCCCCCCCOC(=O)CCCN(CCCCCC(=O)OCC(CCCCCCCC)CCCCCCCC)CCOCCO , give its measured Cell survival rate (%) value.
Resp: 77.56

====

system: 293T cells; assay: Fluorescent detection of Fluc-mRNA (cell transfection efficiency of LNP formulations); type: cell-based; details: RLU of named substance / RLU of HHMA
Parameter: fluorescence absorption value, times that of HHMA (times)
The response must be a number in times with no trailing unit.

Req: For the compound CCCCCCCCCCOC(=O)CCCN(CCCCCC(=O)OCCC(CCCCCC)CCCCCC)C[C@@H](O)CO [YK-115] , give its measured fluorescence absorption value, times that of HHMA value.
Resp: 0.70

Req: For the compound CCCCCCCCC(CCCCCCCC)COC(=O)CCCCCN(CCO)CCCCCC(=O)OCCSCCCC [YK-113] , give its measured fluorescence absorption value, times that of HHMA value.
Resp: 0.07

Next:
Req: For the compound CCCCCCCCCCOC(=O)CCCN(CCCCCC(=O)OCCC(CCCCCC)CCCCCC)CCOCCOCCO [YK-121] , give its measured fluorescence absorption value, times that of HHMA value.
Resp: 0.21

Req: For the compound CCCCCCCCCCOC(=O)CCCN(CCCCCC(=O)OCC(CCCCCCCC)CCCCCCCC)CCOCCO [YK-124] , give its measured fluorescence absorption value, times that of HHMA value.
Resp: 0.04

====

test system: 293T cells; test: Cell survival rate determination (CCK-8); format: cell-based; settings: cell survival rate of YK-101 minus that of named substance
Parameter: cell survival rate lower than that of YK-101 (%)
The response must be a number in % with no trailing unit.

For orientation, consider the following solved cases.
Req: For the compound CCCCCCC(CCCCCC)CCOC(=O)CCCCCCCN(CCO)CCCCCCCC(=O)OCCC(CCCCCC)CCCCCC [Compound 23, reference compound] , give its measured cell survival rate lower than that of YK-101 value.
Resp: 19.21

Req: For the compound CCCCCCCCCCOC(=O)CCCN(CCCCCC(=O)OCCC(CCCCCC)CCCCCC)CCOCCO , give its measured cell survival rate lower than that of YK-101 value.
Resp: 13.44

Req: For the compound CCCCCCCCCCOC(=O)CCCN(CCO)CCCCC(=O)OCCC(CCCCCC)CCCCCC , give its measured cell survival rate lower than that of YK-101 value.
Resp: 16.57

Req: For the compound CCCCCCCCCCOC(=O)CCCN(CCCCCC(=O)OCCC(CCCCCC)CCCCCC)CCC(C)O (stereo not shown) , give its measured cell survival rate lower than that of YK-101 value.
Resp: 26.79

Req: For the compound CCCCCCCCCC(=O)OCCCCN(CCO)CCCCCC(=O)OCCC(CCCCCC)CCCCCC , give its measured cell survival rate lower than that of YK-101 value.
Resp: 20.67

Next:
Req: For the compound CCCCCCCCCCOC(=O)CCCN(CCO)CCCCCCOC(=O)CC(CCCCCC)CCCCCC , give its measured cell survival rate lower than that of YK-101 value.
Resp: 11.54

Req: For the compound CCCCCCCCCCOC(=O)CCCN(CCCCCC(=O)OCCC(CCCCCC)CCCCCC)C[C@H](C)O , give its measured cell survival rate lower than that of YK-101 value.
Resp: 32.19

Req: For the compound CCCCCCCCCCOC(=O)CCCN(CCCCCC(=O)OCCC(CCCCCC)CCCCCC)CCOCCOCCO , give its measured cell survival rate lower than that of YK-101 value.
Resp: 17.01

====

tested on: 293T cells; assay: Fluorescent detection of Fluc-mRNA (cell transfection efficiency of LNP formulations); assay type: cell-based; details: RLU of named substance / RLU of SM-102
Where Ratio relative to SM-102 equals or exceeds 1, the correct label is met; where it does not, the label is not met.

These solved cases illustrate the format of a correct answer.
Req: Given CCCCCCCCCCOC(=O)CCCN(CCO)CCCCC(=O)OCCC(CCCCCC)CCCCCC , state whether its Ratio relative to SM-102 is at least 1.
Resp: met

Req: Given CCCCCCCCCCOC(=O)CCCN(CCCCCC(=O)OCCC(CCCCCC)CCCCCC)CCOC(=O)CCCN(C)C , state whether its Ratio relative to SM-102 is at least 1.
Resp: not met

Req: Given CCCCCCCCCC(=O)OCCCCN(CCO)CCCCCC(=O)OCCC(CCCCCC)CCCCCC , state whether its Ratio relative to SM-102 is at least 1.
Resp: not met

Req: Given CCCCCCCCCCOC(=O)CCCCCN(CCO)CCCCCC(=O)OCCC(CCCCCC)CCCCCC , state whether its Ratio relative to SM-102 is at least 1.
Resp: met

Req: Given CCCCCCCCCCOC(=O)CCCN(CCCCCC(=O)OCC(CCCCCCCC)CCCCCCCC)CCOCCO , state whether its Ratio relative to SM-102 is at least 1.
Resp: not met

Req: Given CCCCCCCCC(CCCCCC)C(=O)OCCCCCCN(CCCCO)CCCCCCOC(=O)C(CCCCCC)CCCCCCCC (stereo not shown) [ALC-0315, reference compound] , state whether its Ratio relative to SM-102 is at least 1.
Resp: met

Req: Given CCCCCCCCCCOC(=O)CCCN(CCCO)CCCCCC(=O)OCC(CCCCCCCC)CCCCCCCC , state whether its Ratio relative to SM-102 is at least 1.
Resp: met

Req: Given CCCCCCCCCCOC(=O)CCCN(CCCCCC(=O)OCCC(CCCCCC)CCCCCC)CCC(C)(C)O , state whether its Ratio relative to SM-102 is at least 1.
Resp: not met

Req: Given CCCCCCCCC(CCCCCCCC)OC(=O)CCCCCCCN(CCO)CCCCCCCC(=O)OCCC(CCCCCC)CCCCCC [Compound 21, reference compound] , state whether its Ratio relative to SM-102 is at least 1.
Resp: not met

Req: Given CCCCCCCCCCOC(=O)CCCN(CCO)CCCCCC(=O)OCCC(CCCCCC)CCCCCC , state whether its Ratio relative to SM-102 is at least 1.
Resp: met

Then this compound:
Req: Given CCCCCCCCCCOC(=O)CCCN(CCCCCC(=O)OCCC(CCCCCC)CCCCCC)C[C@H](O)CO , state whether its Ratio relative to SM-102 is at least 1.
Resp: not met

====

tested on: 293T cells; experiment: Cell survival rate determination (CCK-8); type: cell-based; details: cell survival rate of YK-107 minus that of named substance
Parameter: cell survival rate lower than that of YK-107. Scope: all listed entries.
The response must be a number in % with no trailing unit.

For orientation, consider the following solved cases.
Req: For the molecule CCCCCCCCCCOC(=O)CCCN(CCCCCC(=O)OCC(CCCCCCCC)CCCCCCCC)CCOCCOCCO , give its measured cell survival rate lower than that of YK-107 value.
Resp: 11.30

Req: For the molecule CCCCCCCCCCOC(=O)CCCN(CCO)CCCCCC(=O)OCC(CCCCCCCC)CCCCCCCC [YK-009, reference compound] , give its measured cell survival rate lower than that of YK-107 value.
Resp: 16.88

Next:
Req: For the molecule CCCCCCCCCCOC(=O)CCCN(CCCCCC(=O)OCC(CCCCCCCC)CCCCCCCC)CCOCCO , give its measured cell survival rate lower than that of YK-107 value.
Resp: 12.89

====

assay: Determination of particle size and polydispersity index (PDI) of lipid nanoparticles by dynamic light scattering; assay type: physicochemical; conditions: LNP formulation of named cationic lipid/DSPC/cholesterol/DMG-PEG2000 49:10:39.5:1.5
Parameter: PDI(%)
The response must be a number in % with no trailing unit.

Req: For the compound CCCCCCCCCCOC(=O)CCCN(CCCCCC(=O)OCCC(CCCCCC)CCCCCC)CCOCCOCCO , give its measured PDI(%) value.
Resp: 25.1

Req: For the compound CCCCCCCCCCOC(=O)CCCN(CCO)CCCCC(=O)OCCC(CCCCCC)CCCCCC , give its measured PDI(%) value.
Resp: 26.9

Req: For the compound CCCCCCC(CCCCCC)CCOC(=O)CCCCCCCN(CCO)CCCCCCCC(=O)OCCC(CCCCCC)CCCCCC [Compound 23, reference compound] , give its measured PDI(%) value.
Resp: 7.7

Req: For the compound CCCCCCCCCCCOC(=O)CCCCCN(CCO)CCCCCCCC(=O)OC(CCCCCCCC)CCCCCCCC [SM-102, reference compound] , give its measured PDI(%) value.
Resp: 17.4

Req: For the compound CCCCCCCCCC(=O)OCCCCN(CCO)CCCCCC(=O)OCCC(CCCCCC)CCCCCC , give its measured PDI(%) value.
Resp: 28.2

Next:
Req: For the compound CCCCCCCCC(CCCCCC)C(=O)OCCCCCCN(CCCCO)CCCCCCOC(=O)C(CCCCCC)CCCCCCCC (stereo not shown) [ALC-0315, reference compound] , give its measured PDI(%) value.
Resp: 15.0

Req: For the compound CCCCCCCCCCOC(=O)CCCN(CCCCCC(=O)OCC(CCCCCCCC)CCCCCCCC)CCOC(=O)CCCN(C)C , give its measured PDI(%) value.
Resp: 15.1
